tested on: CCRIS mutagenicity, Ames/micronucleus/aberration tests; assay: CCRIS mutagenicity studies; conditions: Test System: AMES SALMONELLA TYPHIMURIUM; Strain/Indicator: TA98; Metabolic Activation: NONE; Method: PREINCUBATION
Activity calls are given as the source filed them. The rule behind the calls is not given here.
Classes used: 1.0 for active, 0.0 for inactive

| compound | discrete_label |
| --- | --- |
| ClCC(Br)CBr (configuration not stated) | 0.0 |
| [Br][Pt-2]([Br])([Br])([Br])([Br])[Br] | 0.0 |
| CCN(N=O)c1ccccc1 | 0.0 |
| C1OCOCO1 | 0.0 |
| Cc1ccc2cccc([N+](=O)[O-])c2c1 | 1.0 |
| COc1ccc(O)c(C(C)(C)C)c1 | 0.0 |
| S=C1NCCN1 | 0.0 |
| Cc1cc(C)cc([N+](=O)[O-])c1 | 0.0 |
| CC(CC(=O)O)C(=O)O (configuration not stated) | 0.0 |
| O=C(OOC(=O)c1ccccc1)c1ccccc1 | 0.0 |
| Nc1ccc(-c2ccc(N)c(Br)c2)cc1Br | 1.0 |
| Nc1cc([N+](=O)[O-])ccc1-c1ccc([N+](=O)[O-])cc1 | 1.0 |
| [O]=[Mo](=[O])=[O] | 0.0 |
| O=[N+]([O-])c1cccc(S(=O)(=O)O)c1 | 0.0 |
| Nc1cc(S(=O)(=O)[O-])cc2c1C(=O)/C(=N\Nc1ccc(-c3ccc(N/N=C4\C(=O)c5c(N)cc(S(=O)(=O)[O-])cc5C=C4S(=O)(=O)[O-])c(O)c3)cc1O)C(S(=O)(=O)[O-])=C2.[Cu].[Cu].[Na+].[Na+].[Na+].[Na+] | 0.0 |
| Cc1c(C)c(Br)c(Br)c(Br)c1Br | 0.0 |
| [O]=[Cd] | 0.0 |
| O=[N+]([O-])c1cccc(-c2ccccc2)c1O | 0.0 |
| O=C1C=CC(=O)C(c2ccccc2)=C1 | 0.0 |
| CC1(C)S[C@@H]2[C@H](NC(=O)COc3ccccc3)C(=O)N2[C@H]1C(=O)O | 0.0 |
| CN(C)CCCN1c2ccccc2Sc2ccc(Cl)cc21 | 0.0 |
| O=C1OC(c2ccc(O)cc2)(c2ccc(O)cc2)c2ccccc21 | 0.0 |
| CC(COC(=O)c1ccccc1)(COC(=O)c1ccccc1)COC(=O)c1ccccc1 | 0.0 |
| CCC(Cl)[N+](=O)[O-] (configuration not stated) | 1.0 |
| COc1cc(OC)c2c(c1)O[C@@H]1OC=C[C@H]21 | 0.0 |
| CCCCc1ccc(N=Cc2ccc(OC)cc2)cc1 | 0.0 |
| O=P(O)(O)O | 0.0 |
| CCCC[N+](=O)[O-] | 0.0 |
| CCN(CC)CCNc1ccc(CO)c2sc3ccccc3c(=O)c12 | 1.0 |
| COC(=O)c1ccc(C)cc1 | 0.0 |
| C/C(C=O)=C(/Cl)C(=O)O | 1.0 |
| CCN(CC)CCCC(C)Nc1c2ccc(Cl)cc2nc2ccc(OC)cc12 (configuration not stated) | 1.0 |

====

tested on: CCRIS mutagenicity, Ames/micronucleus/aberration tests; assay: CCRIS mutagenicity studies; settings: Test System: AMES SALMONELLA TYPHIMURIUM; Strain/Indicator: TA1535; Metabolic Activation: HAMSTER, LIVER, S-9, AROCLOR 1254 (10%); Method: PREINCUBATION
Calls of active or inactive are those of the source. No rule for the calls is given here.
Classes used: 1.0 for active, 0.0 for inactive

| compound | discrete_label |
| --- | --- |
| Cc1ccccc1Br | 0.0 |
| CN(C)CCCN1c2ccccc2Sc2ccc(Cl)cc21 | 0.0 |
| C=CC1CO1 (stereo unspecified) | 1.0 |
| CC(CC(=O)O)C(=O)O (stereo unspecified) | 0.0 |
| [O]=[Cd] | 0.0 |
| CCCCC/C=C\C/C=C\CCCCCCCC(=O)O | 0.0 |
| CCOC(=O)c1ccccc1N | 0.0 |
| O=S(=O)(O)c1ccc(N=Nc2c(O)ccc3cc(S(=O)(=O)O)ccc23)cc1 | 0.0 |
| C[N+](=O)[O-] | 0.0 |
| OCC(Br)CBr (stereo unspecified) | 1.0 |
| Cc1cc(C)cc(N)c1 | 0.0 |
| CCCCC(CC)COC(=O)c1ccccc1C(=O)O (stereo unspecified) | 0.0 |
| O=C1c2ccccc2C(=O)C1(O)O | 0.0 |
| Cc1ccc(C)o1 | 0.0 |
| C/C(C=O)=C\c1ccccc1 | 0.0 |
| OCC(Cl)CCl (stereo unspecified) | 1.0 |
